Data provenance: BigSolDB 2.1

# testConditions: in acetone, 308.45 K
measureName: solubility (mole fraction)

| compound | measureName | number |
| --- | --- | --- |
| O=P1(C(Nc2ccccc2)c2ccccc2)OCC2(CO1)COP(=O)(C(Nc1ccccc1)c1ccccc1)OC2 (stereo unspecified) | solubility (mole fraction) | 0.000151 |

====

# testConditions: in acetic acid, 318.25 K

| molecule | solubility (mole fraction) |
| --- | --- |
| O=P1(C(Nc2ccccc2)c2ccccc2)OCC2(CO1)COP(=O)(C(Nc1ccccc1)c1ccccc1)OC2 (stereo unspecified) | 0.000288 |

====

# testConditions: in acetic acid, 323.15 K

| compound | solubility (mole fraction) |
| --- | --- |
| O=P1(C(Nc2ccccc2)c2ccccc2)OCC2(CO1)COP(=O)(C(Nc1ccccc1)c1ccccc1)OC2 (stereo unspecified) | 0.000326 |

====

# testConditions: in 1,4-dioxane, 338.3 K

| compound | solubility (mole fraction) |
| --- | --- |
| O=P1(C(Nc2ccccc2)c2ccccc2)OCC2(CO1)COP(=O)(C(Nc1ccccc1)c1ccccc1)OC2 (stereo unspecified) | 0.000479 |

====

# testConditions: in 1,2-dichloroethane, 327.95 K
measureName: solubility (mole fraction)

| compound | result |
| --- | --- |
| O=P1(C(Nc2ccccc2)c2ccccc2)OCC2(CO1)COP(=O)(C(Nc1ccccc1)c1ccccc1)OC2 (stereo unspecified) | 0.000231 |

====

# testConditions: in ethanol, 293.15 K
measureName: solubility (mole fraction)

| molecule | number |
| --- | --- |
| O=P1(C(Nc2ccccc2)c2ccccc2)OCC2(CO1)COP(=O)(C(Nc1ccccc1)c1ccccc1)OC2 (stereo unspecified) | 5e-05 |

====

# testConditions: in THF, 308.65 K

| compound | solubility (mole fraction) |
| --- | --- |
| O=P1(C(Nc2ccccc2)c2ccccc2)OCC2(CO1)COP(=O)(C(Nc1ccccc1)c1ccccc1)OC2 (stereo unspecified) | 0.00588 |

====

# testConditions: in THF, 298.15 K

| molecule | solubility (mole fraction) |
| --- | --- |
| O=P1(C(Nc2ccccc2)c2ccccc2)OCC2(CO1)COP(=O)(C(Nc1ccccc1)c1ccccc1)OC2 (stereo unspecified) | 0.00481 |

====

# testConditions: in acetonitrile, 328.45 K
measureName: solubility (mole fraction)

| compound | measureName | number |
| --- | --- | --- |
| O=P1(C(Nc2ccccc2)c2ccccc2)OCC2(CO1)COP(=O)(C(Nc1ccccc1)c1ccccc1)OC2 (stereo unspecified) | solubility (mole fraction) | 0.000146 |

====

# testConditions: in 1,2-dichloroethane, 303.45 K
measureName: solubility (mole fraction)

| compound | number |
| --- | --- |
| O=P1(C(Nc2ccccc2)c2ccccc2)OCC2(CO1)COP(=O)(C(Nc1ccccc1)c1ccccc1)OC2 (stereo unspecified) | 0.000163 |

====

# testConditions: in acetonitrile, 293.2 K

| molecule | solubility (mole fraction) |
| --- | --- |
| O=P1(C(Nc2ccccc2)c2ccccc2)OCC2(CO1)COP(=O)(C(Nc1ccccc1)c1ccccc1)OC2 (stereo unspecified) | 4.5e-05 |

====

# testConditions: in benzene, 288.35 K
measureName: solubility (mole fraction)

| molecule | measureName | number |
| --- | --- | --- |
| O=P1(C(Nc2ccccc2)c2ccccc2)OCC2(CO1)COP(=O)(C(Nc1ccccc1)c1ccccc1)OC2 (stereo unspecified) | solubility (mole fraction) | 4.3e-05 |
